Origin of measurements: patent US20240122893A1

System: SARS-CoV-2
method-description: CPE inhibition assay, SARS-CoV-2 strains in Vero C1008 cells
Format: cell-based
setup-conditions: Severe acute respiratory syndrome coronavirus 2, Vero C1008, 614G+ clinical strain USA/MDHP-20/2020 (MD)
recorded-endpoint: pIC50
Please keep in mind that pIC50 is minus log10 of the molar concentration; only the number is needed.

Prompt line: Could you share which pIC50 value was measured for C[S+]([O-])CCCCN=C=S (stereo not shown) ?
Response line: 4.32

====

Test system: SARS-CoV-2
method-description: CPE inhibition assay, SARS-CoV-2 strains in Vero C1008 cells
Format: cell-based
setup-conditions: 614G+ clinical strain USA/MDHP-20/2020 (MD)
recorded-endpoint: pIC50
Please keep in mind that pIC50 is minus log10 of the molar concentration; only the number is needed.

Prompt line: Could you share which pIC50 value was measured for C[S+]([O-])CCCCN=C=S (stereo not shown) ?
Response line: 4.55

====

Tested on: SARS-CoV-2
method-description: CPE inhibition assay, SARS-CoV-2 strains in Vero C1008 cells
Format: cell-based
setup-conditions: 614G+ clinical strain USA/DCHP-7/2020 (DC)
recorded-endpoint: IC50 (µM)
Entry rule: numbers only, all in µM.

Prompt line: Could you share which IC50 value was measured for C[S+]([O-])CCCCN=C=S (stereo not shown) ?
Response line: 29
